- targetUnderTest: HLA-A*02:01
- assayProcedure: IEDB peptide-MHC binding, purified MHC/competitive/radioactivity; bounds were set here for any values at or beyond the usual limits of such assays
- experimentalConditions: source organism: Vaccinia virus WR
Some sequences, each annotated with its measured IC50.
Units required after the number.

Worked examples follow.
Exercise: // returns reported IC50 for input NVIEDITFL
Key: 304 nM

Exercise: // returns reported IC50 for input AVIPFDDIV
Key: 915 nM

Others:
Exercise: // returns reported IC50 for input FIISTLNKI
Key: 6.1 nM

Exercise: // returns reported IC50 for input GLISGSTFSI
Key: 22 nM

Exercise: // returns reported IC50 for input MICCDSRIVV
Key: 25 nM

====

- targetUnderTest: HLA-A*02:06
- assayProcedure: IEDB peptide-MHC binding, purified MHC/competitive/radioactivity; bounds were set here for any values at or beyond the usual limits of such assays
- experimentalConditions: source organism: Vaccinia virus WR
recordedEndpoint: pIC50
Please express pIC50 as -log10 of the molar concentration.

Exercise: // returns reported pIC50 for input YAGTIKESL
Key: 5.48

Exercise: // returns reported pIC50 for input AMLKSKNINI
Key: 6.70

Exercise: // returns reported pIC50 for input DQLVFNSISA
Key: 6.12

Exercise: // returns reported pIC50 for input EQGDIALAL
Key: 5.32

Exercise: // returns reported pIC50 for input TTFITVLTSV
Key: 6.78

Others:
Exercise: // returns reported pIC50 for input IVYGRSNAIL
Key: 6.37

Exercise: // returns reported pIC50 for input PVLEKKVCAI
Key: 5.98

====

- targetUnderTest: HLA-A*02:01
- assayProcedure: IEDB peptide-MHC binding, purified MHC/competitive/radioactivity; bounds were set here for any values at or beyond the usual limits of such assays
- experimentalConditions: source organism: Hepacivirus hominis
pIC50: −log10 of the molar value.
Criterion: pIC50 meeting or surpassing 7. Met: rule met. Not met: rule not met.

Exercise: Record LLLSTTEWQV ; criterion: pIC50 no lower than 7. Met?
Key: rule met

Exercise: Record KLFPRLPGI ; criterion: pIC50 no lower than 7. Met?
Key: rule met

Exercise: Record VLVGGVLAAL ; criterion: pIC50 no lower than 7. Met?
Key: rule met

Exercise: Record TLLGCWSFV ; criterion: pIC50 no lower than 7. Met?
Key: rule met

Exercise: Record YVLLLFLLLA ; criterion: pIC50 no lower than 7. Met?
Key: rule not met

Others:
Exercise: Record LLIAITAFT ; criterion: pIC50 no lower than 7. Met?
Key: rule not met

Exercise: Record MLLAYLVRI ; criterion: pIC50 no lower than 7. Met?
Key: rule met

Exercise: Record LLALLSCISV ; criterion: pIC50 no lower than 7. Met?
Key: rule met

Exercise: Record RLIVYPDLGV ; criterion: pIC50 no lower than 7. Met?
Key: rule met

====

- targetUnderTest: HLA-A*02:06
- assayProcedure: IEDB peptide-MHC binding, purified MHC/competitive/radioactivity; bounds were set here for any values at or beyond the usual limits of such assays
- experimentalConditions: source organism: SARS-CoV1
recordedEndpoint: pIC50
Please express pIC50 as -log10 of the molar concentration.

Exercise: // returns reported pIC50 for input FLNGSCGSV
Key: 7.19

Exercise: // returns reported pIC50 for input IAACAMLLV
Key: 6.88

Exercise: // returns reported pIC50 for input HLDGEVLSL
Key: 6.80

Others:
Exercise: // returns reported pIC50 for input AIILASFSA
Key: 7.09
